Listed binders paired with reported Emax
Biological target: human CD3 on cells (human PBMC; Jurkat TCR/CD3 NFAT reporter cells) (human, UniProt P07766 23-207; P04234 22-171; P09693 23-182)
Sequence (P07766 23-207, chain 1 of 3): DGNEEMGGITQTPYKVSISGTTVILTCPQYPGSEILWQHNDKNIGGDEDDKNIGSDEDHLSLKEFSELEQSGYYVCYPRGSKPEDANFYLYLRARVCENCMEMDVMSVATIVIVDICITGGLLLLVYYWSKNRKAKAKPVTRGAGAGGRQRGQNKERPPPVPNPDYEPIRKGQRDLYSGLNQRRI
Sequence (P04234 22-171, chain 2 of 3): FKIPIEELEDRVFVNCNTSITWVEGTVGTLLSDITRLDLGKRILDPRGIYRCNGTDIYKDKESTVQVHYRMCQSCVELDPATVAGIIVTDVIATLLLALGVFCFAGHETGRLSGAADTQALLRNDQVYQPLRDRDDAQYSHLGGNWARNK
Sequence (P09693 23-182, chain 3 of 3): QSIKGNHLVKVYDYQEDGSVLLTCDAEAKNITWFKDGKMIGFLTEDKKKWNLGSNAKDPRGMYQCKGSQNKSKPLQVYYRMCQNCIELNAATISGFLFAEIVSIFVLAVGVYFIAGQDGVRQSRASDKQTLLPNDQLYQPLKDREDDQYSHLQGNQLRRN
Assay: cell-based or functional assay
Answer using only a numeral; do not append any unit.

Below, 4 binders whose answers are already recorded.
{"Binder": "Hu155A9B1-18 (antibody, V domains shown, humanized mAb) VH: EVQLQESGPGLVKPSETLSLTCTVSGFSLTSYNVHWVRQPPGKGLEWMGRVRYNGDTSYNSALKSRLTISRDTSKNQASLKLSSVTAADTAVYYCTRGPYGGSSEPLFDYWGQGTMVTVSS VL: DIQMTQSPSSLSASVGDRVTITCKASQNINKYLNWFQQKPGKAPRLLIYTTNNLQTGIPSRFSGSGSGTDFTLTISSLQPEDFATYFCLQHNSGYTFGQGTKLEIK", "Emax": 4250}
{"Binder": "Hu153A6B1-14 (antibody, V domains shown, humanized mAb) VH: EVQLQESGPGLVKPSETLSLTCTVSGGSISSYNIHWVRQPPGKGLEWIGRIRYNGDTSYNSALKSRVTISRDTSKNQFSLKLSSVTAADTAVYYCARGPYGGSREPLFDYWGQGTMVTVSS VL: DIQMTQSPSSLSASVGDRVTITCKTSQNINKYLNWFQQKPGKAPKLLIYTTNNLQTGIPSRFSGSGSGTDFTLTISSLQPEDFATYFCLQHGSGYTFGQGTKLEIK", "Emax": 4140}
{"Binder": "Hu153A6B1-17 (antibody, V domains shown, humanized mAb) VH: EVQLQESGPGLVKPSETLSLTCTVSGFSISSYNIHWVRQPPGKGLEWMGRIRYNGDTSYNSALKSRLTISRDTSKNQVSLKLSSVTAADTAVYYCTRGPYGGSREPLFDYWGQGTMVTVSS VL: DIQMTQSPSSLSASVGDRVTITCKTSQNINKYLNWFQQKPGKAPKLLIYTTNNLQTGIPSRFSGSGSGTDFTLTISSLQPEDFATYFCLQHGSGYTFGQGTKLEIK", "Emax": 4260}
{"Binder": "Hu155A9B1-11 (antibody, V domains shown, humanized mAb) VH: EVQLQESGPGLVKPSETLSLTCTVSGFSISSYNVHWVRQPPGKGLEWMGRVRYNGDTSYNSALKSRLTISRDTSKNQASLKLSSVTAADTAVYYCTRGPYGGSSEPLFDYWGQGTMVTVSS VL: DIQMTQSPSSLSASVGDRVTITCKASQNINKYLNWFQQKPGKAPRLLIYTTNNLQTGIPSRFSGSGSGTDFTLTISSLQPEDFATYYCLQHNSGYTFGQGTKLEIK", "Emax": 4500}

Please report the recorded Emax for Hu155A9B1-5 (antibody, V domains shown, humanized mAb; also called 155z5) VH: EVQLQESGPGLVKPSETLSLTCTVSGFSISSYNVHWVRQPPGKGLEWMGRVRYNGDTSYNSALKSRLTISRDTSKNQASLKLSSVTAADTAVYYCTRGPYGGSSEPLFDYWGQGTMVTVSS VL: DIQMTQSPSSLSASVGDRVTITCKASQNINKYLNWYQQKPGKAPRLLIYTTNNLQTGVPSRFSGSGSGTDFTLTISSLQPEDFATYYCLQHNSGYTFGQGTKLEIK .
4050

Same thing, different binder: Hu155A9B1-13 (antibody, V domains shown, humanized mAb) VH: EVQLQESGPGLVKPSETLSLTCTVSGGSISSYNVHWIRQPPGKGLEWIGRVRYNGDTSYNSALKSRVTISVDTSKNQFSLKLSSVTAADTAVYYCARGPYGGSSEPLFDYWGQGTMVTVSS VL: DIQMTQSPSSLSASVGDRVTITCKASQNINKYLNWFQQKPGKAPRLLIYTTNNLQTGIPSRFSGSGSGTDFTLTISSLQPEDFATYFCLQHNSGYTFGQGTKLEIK
1060

Same thing, different binder: Hu153A6B1-3 (antibody, V domains shown, humanized mAb) VH: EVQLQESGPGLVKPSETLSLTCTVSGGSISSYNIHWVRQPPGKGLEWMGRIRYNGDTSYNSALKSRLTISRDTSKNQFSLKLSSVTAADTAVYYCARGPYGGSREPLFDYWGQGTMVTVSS VL: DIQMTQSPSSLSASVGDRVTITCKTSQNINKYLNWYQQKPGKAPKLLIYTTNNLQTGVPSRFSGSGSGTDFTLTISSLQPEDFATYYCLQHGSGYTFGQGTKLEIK
2660

Same thing, different binder: Hu153A6B1-4 (antibody, V domains shown, humanized mAb) VH: EVQLQESGPGLVKPSETLSLTCTVSGGSISSYNIHWVRQPPGKGLEWMGRIRYNGDTSYNSALKSRLTISRDTSKNQFSLKLSSVTAADTAVYYCTRGPYGGSREPLFDYWGQGTMVTVSS VL: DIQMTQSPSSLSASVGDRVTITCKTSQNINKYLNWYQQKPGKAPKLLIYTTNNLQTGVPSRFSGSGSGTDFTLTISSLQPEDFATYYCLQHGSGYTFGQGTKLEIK
2580

Same thing, different binder: Hu155A9B1-6 (antibody, V domains shown, humanized mAb) VH: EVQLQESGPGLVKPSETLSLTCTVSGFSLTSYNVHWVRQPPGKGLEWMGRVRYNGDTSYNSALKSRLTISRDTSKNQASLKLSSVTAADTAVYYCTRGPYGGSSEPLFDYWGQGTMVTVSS VL: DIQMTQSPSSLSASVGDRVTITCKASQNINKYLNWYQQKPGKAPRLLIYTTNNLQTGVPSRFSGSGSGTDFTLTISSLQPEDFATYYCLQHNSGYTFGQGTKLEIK
4300

Same thing, different binder: Hu153A6B1-9 (antibody, V domains shown, humanized mAb) VH: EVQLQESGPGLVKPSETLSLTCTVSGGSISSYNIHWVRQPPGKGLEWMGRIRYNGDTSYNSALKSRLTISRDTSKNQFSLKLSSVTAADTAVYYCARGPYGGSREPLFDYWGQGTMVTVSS VL: DIQMTQSPSSLSASVGDRVTITCKTSQNINKYLNWFQQKPGKAPKLLIYTTNNLQTGIPSRFSGSGSGTDFTLTISSLQPEDFATYYCLQHGSGYTFGQGTKLEIK
4310
